# Tested on: SK-MEL-2 melanoma
# test.name: NCI tumour cell line growth inhibition, 48 h
For each record, write down the corresponding GI50.

// input: 3 compounds below; output: GI50 for each
1. CC#CC(=O)N1CCC[C@H]1c1nc(-c2ccc(C(=O)Nc3ccccn3)cc2)c2c(N)nccn12
2. O=Nc1c(O)ccc2ccccc12
3. O=C(CCN1CCCC1)Nc1ccc2c(NCCCc3ccccc3)c3ccccc3nc2c1

[reply]
> 88.4 µM
2.12 µM
1.69 µM

---

# Test system: CAKI-1 renal
# test.name: NCI tumour cell line growth inhibition, 48 h
recorded.metric: TGI

Provide the reported TGI of each entry below, same order.
1. C#CCOC(=O)c1ccccc1OC(C)=O
2. CC(C)(C)C=C=C(C(C)(C)C)P(=O)(O)O
3. O/N=C\c1cc(O)c(O)c(/C=N/O)c1
4. CCCCCCCCCN1CCC(=O)C(C(=O)OC)C1 (stereo unspecified)
5. O=C(CCN1CCCC1)Nc1ccc2c(NCCCc3ccccc3)c3ccccc3nc2c1

[reply]
["> 100 µM", "> 100 µM", "> 100 µM", "29.2 µM", "28 µM"]

response.value for O=C(O)CCC1(c2ccccc2)NC(=O)NC1=O (stereo unspecified) (field: TGI) = > 100 µM

---

# Tested on: SF-539 CNS
# test.name: NCI tumour cell line growth inhibition, 48 h
Give measured TGI for each item. Keep answers brief.

Record excerpt, results attached:
CCc1cccc(C)c1NC(=O)NS(=O)(=O)c1ccc(C)cc1
> 100 µM
O/N=C\c1cc(O)c(O)c(/C=N/O)c1
> 100 µM
NC(CCCCNc1ccn(C2OC(CO)C(O)C2O)c(=O)n1)C(=O)O (stereo unspecified)
> 100 µM
FC(F)(F)c1ccc(-c2cnc(Br)nc2NC2CCCCCC2)cc1
> 100 µM

Lab note: each compound below needs its TGI filled in.
1. CC(=O)c1cccc(NC2C(N)C(NC(=O)N(C)C)(C(C)O)C(C)(O)C2(O)COC(=O)c2c(C)cccc2O)c1 (stereo unspecified)
2. CC1(C)OCN(c2ccc(Cl)cc2)Cn2c1nc1ccccc12

[reply]
1: < 0.001 µM; 2: > 100 µM

---

Provide the recorded TGI for the entries that follow.
# System: TK-10 renal
# test.name: NCI tumour cell line growth inhibition, 48 h

Below, 8 compounds whose answers are already recorded.
COC(=O)CCC1=C(C)c2cc3[n-]c(cc4nc(cc5[n-]c(cc1n2)c(CCC(=O)OC)c5C)C=C4C)cc3C.[Cd+2]
13.6 µM
COc1ccc(/C=C\c2cc(OC)c(OC)c(OC)c2)c(NS(=O)(=O)c2ccc(C)cc2)c1O
> 100 µM
CC(=O)N1CC(F)(F)c2c(Sc3ncc(N4CCC5(CC4)COC[C@H]5N)nc3N)cccc21
35.8 µM
O/N=C\c1cc(O)c(O)c(/C=N/O)c1
> 100 µM
O=C(/C=C/c1cccc(Cl)c1)c1ccc(Cl)cc1Cl
18.8 µM
NNC(=O)c1n[nH]nc1SSc1n[nH]nc1C(=O)NN
> 100 µM
O=[N+]([O-])C1(C2([N+](=O)[O-])CCCC2)CCCC1
> 100 µM
O=C(NC(Nc1ccc(F)c(Cl)c1)(C(F)(F)F)C(F)(F)F)C(C(F)(F)F)C(F)(F)F
> 100 µM

With those in mind, consider the next compound.
Entry `O=C(/C=C\c1ccnc2ccccc12)c1ccc([N+](=O)[O-])cc1` ; TGI = > 100 µM
